# ASSAYED TARGET: CDK12 (Homo sapiens)
# Construct: endogenous in cells; host or cells: CAL-120 human breast cancer cells (DSMZ ACC 459)
# Sequence (Q9NYV4 whole entry): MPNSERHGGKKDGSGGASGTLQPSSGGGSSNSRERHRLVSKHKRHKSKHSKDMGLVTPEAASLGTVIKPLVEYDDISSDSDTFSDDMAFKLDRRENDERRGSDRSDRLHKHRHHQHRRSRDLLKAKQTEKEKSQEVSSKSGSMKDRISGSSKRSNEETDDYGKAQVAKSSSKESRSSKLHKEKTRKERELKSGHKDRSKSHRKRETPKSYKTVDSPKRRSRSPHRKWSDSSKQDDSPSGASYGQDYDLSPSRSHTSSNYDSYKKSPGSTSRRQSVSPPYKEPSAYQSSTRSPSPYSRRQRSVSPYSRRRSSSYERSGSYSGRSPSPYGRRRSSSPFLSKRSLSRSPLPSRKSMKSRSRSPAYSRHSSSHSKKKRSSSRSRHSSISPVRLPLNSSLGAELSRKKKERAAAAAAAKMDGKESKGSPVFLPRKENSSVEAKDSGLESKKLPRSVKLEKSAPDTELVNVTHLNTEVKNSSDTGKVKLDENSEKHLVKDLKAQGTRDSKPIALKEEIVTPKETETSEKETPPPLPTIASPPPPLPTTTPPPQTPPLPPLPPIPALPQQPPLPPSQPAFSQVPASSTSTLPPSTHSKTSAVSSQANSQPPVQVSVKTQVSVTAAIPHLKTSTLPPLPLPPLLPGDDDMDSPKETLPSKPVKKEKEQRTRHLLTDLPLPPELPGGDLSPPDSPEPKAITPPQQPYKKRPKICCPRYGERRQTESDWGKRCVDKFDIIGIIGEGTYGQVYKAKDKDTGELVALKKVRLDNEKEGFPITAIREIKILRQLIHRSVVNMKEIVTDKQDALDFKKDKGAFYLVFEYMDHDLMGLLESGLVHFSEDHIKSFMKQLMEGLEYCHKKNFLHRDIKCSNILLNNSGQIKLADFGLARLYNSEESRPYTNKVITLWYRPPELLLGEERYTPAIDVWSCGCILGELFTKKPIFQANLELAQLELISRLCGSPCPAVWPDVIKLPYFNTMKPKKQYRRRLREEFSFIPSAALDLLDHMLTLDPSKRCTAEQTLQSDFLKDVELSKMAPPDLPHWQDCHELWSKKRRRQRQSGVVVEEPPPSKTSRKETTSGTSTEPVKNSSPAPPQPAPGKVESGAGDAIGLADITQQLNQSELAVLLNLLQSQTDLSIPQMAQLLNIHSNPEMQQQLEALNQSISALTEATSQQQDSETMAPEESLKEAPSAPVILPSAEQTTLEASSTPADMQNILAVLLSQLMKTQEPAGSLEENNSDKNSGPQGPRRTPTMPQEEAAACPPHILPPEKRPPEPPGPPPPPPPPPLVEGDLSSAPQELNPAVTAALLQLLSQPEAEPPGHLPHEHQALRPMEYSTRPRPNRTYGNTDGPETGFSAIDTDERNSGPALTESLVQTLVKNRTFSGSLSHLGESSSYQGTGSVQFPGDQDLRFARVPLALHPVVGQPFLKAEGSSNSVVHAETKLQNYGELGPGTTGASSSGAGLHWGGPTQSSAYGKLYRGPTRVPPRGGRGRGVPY
# Sequence (O75909 whole entry partner): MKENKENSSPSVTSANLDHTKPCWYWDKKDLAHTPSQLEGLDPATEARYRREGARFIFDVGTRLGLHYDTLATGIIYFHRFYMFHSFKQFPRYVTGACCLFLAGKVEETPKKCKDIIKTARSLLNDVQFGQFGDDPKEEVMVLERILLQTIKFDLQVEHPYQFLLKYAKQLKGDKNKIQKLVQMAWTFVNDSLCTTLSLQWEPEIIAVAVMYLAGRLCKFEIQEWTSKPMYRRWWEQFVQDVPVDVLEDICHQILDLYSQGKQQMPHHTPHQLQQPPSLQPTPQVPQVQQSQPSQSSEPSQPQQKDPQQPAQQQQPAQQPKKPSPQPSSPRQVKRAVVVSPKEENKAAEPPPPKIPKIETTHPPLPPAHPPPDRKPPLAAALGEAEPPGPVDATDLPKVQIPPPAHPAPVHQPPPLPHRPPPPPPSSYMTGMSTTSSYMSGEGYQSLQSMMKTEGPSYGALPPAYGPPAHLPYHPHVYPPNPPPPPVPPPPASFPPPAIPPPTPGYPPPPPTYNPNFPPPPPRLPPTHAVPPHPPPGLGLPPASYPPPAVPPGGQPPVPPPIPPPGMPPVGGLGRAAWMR
# TEST PROTOCOL: CDK12 nuclear protein level: immunofluorescence/high content analysis in CAL-120 cells
# Assay type: cell-based
# CONDITION SET: CAL-120 cells, 24 h, nuclear CDK12 staining; read-out: CDK12 degradation IF DC50-[mol/l] (median)
# Description: In the context of the present invention, the term “DC50 CDK12” refers to the DC50 values obtained according to the assay described in this section (6) herein below, i.e. the DC50 values for the degradation of CDK12. CAL-120 human breast cancer cells (DSMZ ACC 459) are seeded in 1536-well microtiter plates (800 cells per well) containing 50 nanoL of compounds in Dose-Response. Control wells received DMSO or Reference Example 1. […]
READOUT: DC50 (nM)

Before answering, review these 5 worked examples.
> print(dat)
                                  structure  obs.value
1  C[C@@H]1CN(c2nc(NCc3nc4c(F)c(F)ccc4[nH]3)c3ncc(Br)n3n2)C[C@H](C)O1       2.07
2  FC(F)(F)c1cnc2c(NCc3nc4ccccc4[nH]3)nc(N3CCOCC3)nn12       4.79
3  OC[C@@H]1CCCCN1c1nc(NCc2nc3ccccc3[nH]2)c2ncc(Br)n2n1       7.62
4  Brc1cnc2c(NCc3nc4ccccc4[nH]3)nc(N3CCNCC3)nn12      0.527
5  C[C@@H]1CN(c2nc(NCc3nc4cc(F)ccc4[nH]3)c3ncc(Br)n3n2)C[C@H](C)N1      0.513

1. C[C@@H]1CN(c2nc(NCc3nc4ccccc4[nH]3)c3ncc(C(F)(F)F)n3n2)C[C@H](C)N1.O=CO
2. Fc1ccc2[nH]c(CNc3nc(N4CCOCC4)nn4c(C(F)(F)F)cnc34)nc2c1F
Given the two records 1 and 2 , choose the one whose DC50 value is lower. Write the label of whichever entry you select.
1
